target: adenosine 2a (Homo sapiens, UniProt P29274)
Sequence (P29274 whole entry): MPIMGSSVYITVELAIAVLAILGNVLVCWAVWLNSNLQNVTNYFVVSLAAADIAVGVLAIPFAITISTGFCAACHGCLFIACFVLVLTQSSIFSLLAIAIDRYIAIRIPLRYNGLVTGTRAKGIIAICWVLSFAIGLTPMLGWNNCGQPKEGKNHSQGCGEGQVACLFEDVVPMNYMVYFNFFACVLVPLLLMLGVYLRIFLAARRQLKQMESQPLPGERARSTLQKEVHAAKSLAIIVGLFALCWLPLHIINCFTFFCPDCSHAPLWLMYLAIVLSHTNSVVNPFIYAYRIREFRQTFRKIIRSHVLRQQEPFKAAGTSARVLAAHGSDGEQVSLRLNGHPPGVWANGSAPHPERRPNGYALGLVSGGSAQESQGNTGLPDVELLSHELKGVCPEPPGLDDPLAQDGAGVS
method: Agonist activity against adenosine receptor subtypes, CHO cells with cAMP response element/SPAP reporter (basal cAMP)
Assay type: cell-based
reported.conditions: ratio to EC50 of NECA; transfected CHO cells; effect on basal cAMP via SPAP
Method: Compounds of the invention were tested for in vitro and in vivo biological activity in accordance with the following screens: • (1) Agonist activity against adenosine 2a, adenosine 1 and adenosine 3 receptor subtypes. Agonist selectivity of compounds against other human adenosine receptors was determined using Chinese hamster ovary (CHO) cells transfected with the gene for the relevant human adenosine receptor following a method based on that of Castanon and Spevak, 1994 . […]
Record 1 whenever A2a (EC50 values as a ratio of that of NECA) is at 10 or higher; record -1 when lower.

CCc1nnc([C@H]2O[C@@H](n3cnc4c(NCC(c5ccccc5)c5ccccc5)nc(NCCc5ccccn5)nc43)[C@H](O)[C@@H]2O)o1.O=CO [Example 24] = -1
CCc1nc([C@H]2O[C@@H](n3cnc4c(NCC(c5ccccc5)c5ccccc5)nc(NCCNC(=N)N)nc43)[C@H](O)[C@@H]2O)no1.O=CO.O=CO [Example 29] = 1
CCc1nnc([C@H]2O[C@@H](n3cnc4c(NCC(c5ccccc5)c5ccccc5)nc(NCCN5CCCCC5)nc43)[C@H](O)[C@@H]2O)o1.O=CO [Example 22] = 1

Could you please find out whether Cc1nnc([C@H]2O[C@@H](n3cnc4c(NCC(c5ccccc5)c5ccccc5)nc(NCCc5cn(C)cn5)nc43)[C@H](O)[C@@H]2O)s1.O=CO.O=CO [Example 19] has A2a (EC50 values as a ratio of that of NECA) that meets 10 or exceeds it?
-1

State whether the measured A2a (EC50 values as a ratio of that of NECA) reaches 10, counting equality as reaching it, for CCc1nnc([C@H]2O[C@@H](n3cnc4c(NCC(c5ccccc5)c5ccccc5)nc(NCCN5CCOCC5)nc43)[C@H](O)[C@@H]2O)[nH]1.O=CO [Example 8]
1

Quick check: does Cc1nnc([C@H]2O[C@@H](n3cnc4c(NCC(c5ccccc5)c5ccccc5)nc(N[C@H](CO)Cc5ccccc5)nc43)[C@H](O)[C@@H]2O)s1.O=CO [Example 20] have A2a (EC50 values as a ratio of that of NECA) greater than or equal to 10?
1

###

Some compounds, each annotated with its measured A3 (EC50 values as a ratio of that of NECA).
target: adenosine 3 (Homo sapiens, UniProt P0DMS8)
Sequence (P0DMS8 whole entry): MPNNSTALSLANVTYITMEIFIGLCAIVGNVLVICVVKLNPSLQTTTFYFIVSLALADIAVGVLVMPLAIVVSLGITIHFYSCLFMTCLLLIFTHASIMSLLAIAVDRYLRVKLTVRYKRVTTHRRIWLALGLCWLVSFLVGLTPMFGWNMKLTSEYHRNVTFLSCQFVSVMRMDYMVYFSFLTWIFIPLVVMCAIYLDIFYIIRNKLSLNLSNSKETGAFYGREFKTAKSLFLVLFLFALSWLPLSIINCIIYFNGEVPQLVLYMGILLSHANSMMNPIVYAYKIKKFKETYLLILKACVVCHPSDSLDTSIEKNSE
method: Agonist activity against adenosine receptor subtypes, CHO cells with cAMP response element/SPAP reporter (forskolin-enhanced cAMP)
Type: cell-based
reported.conditions: ratio to EC50 of NECA; transfected CHO cells; effect on forskolin-enhanced cAMP via SPAP

CCc1nnc([C@H]2O[C@@H](n3cnc4c(NCC(c5ccccc5)c5ccccc5)nc(NCCN5CCOCC5)nc43)[C@H](O)[C@@H]2O)o1.O=CO [Example 23] = >180
CCC(CC)Nc1nc(NC2CCCC2)nc2c1ncn2[C@@H]1O[C@H](c2nnc(C3CC3)o2)[C@@H](O)[C@H]1O.O=CO.O=CO [Example 39] = >173
CCc1nnc([C@H]2O[C@@H](n3cnc4c(NCC(c5ccccc5)c5ccccc5)nc(N[C@H](CO)C(C)C)nc43)[C@H](O)[C@@H]2O)[nH]1.O=CO [Example 7] = >183
Cc1nnc([C@H]2O[C@@H](n3cnc4c(NCC(c5ccccc5)c5ccccc5)nc(N[C@H]5CC[C@H](N)CC5)nc43)[C@H](O)[C@@H]2O)[nH]1.O=CO [Example 4] = >1052
CCC(CC)Nc1nc(N[C@H](CO)C(C)C)nc2c1ncn2[C@@H]1O[C@H](c2nnc(C3CC3)o2)[C@@H](O)[C@H]1O.O=CO [Example 42] = >87

// next item, A3 (EC50 values as a ratio of that of NECA) requested
So what does the record say about A3 (EC50 values as a ratio of that of NECA) for CCn1cnc([C@H]2O[C@@H](n3cnc4c(NCC(c5ccccc5)c5ccccc5)nc(NCCc5cn(C)cn5)nc43)[C@H](O)[C@@H]2O)n1.O=CO.O=CO [Example 31] ?
>206
